- testedOn: hGLP-1R (Homo sapiens, UniProt P43220)
- Sequence (P43220 24-463): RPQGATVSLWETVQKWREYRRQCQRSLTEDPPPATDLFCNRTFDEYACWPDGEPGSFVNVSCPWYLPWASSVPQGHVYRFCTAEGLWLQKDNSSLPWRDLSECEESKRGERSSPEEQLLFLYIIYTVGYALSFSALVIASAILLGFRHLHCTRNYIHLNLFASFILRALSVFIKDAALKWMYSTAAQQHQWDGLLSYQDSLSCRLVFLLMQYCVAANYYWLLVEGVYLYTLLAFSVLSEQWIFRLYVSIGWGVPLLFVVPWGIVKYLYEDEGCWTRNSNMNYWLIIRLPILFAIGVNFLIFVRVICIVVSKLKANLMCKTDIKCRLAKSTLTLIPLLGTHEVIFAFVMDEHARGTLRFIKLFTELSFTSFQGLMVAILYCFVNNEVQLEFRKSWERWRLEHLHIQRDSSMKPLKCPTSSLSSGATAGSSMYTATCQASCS
- assayMethodText: Functional cAMP activity in the presence of 1% HSA
- Format: cell-based
- measurementSetup: read-out: cAMP Rel EC50, hGLP-1R
Starred links: 1 amine or outer side, 2 acyl side, 3 side chain; linkers in the order of their positions; H or OH if unused. Non-standard residues stand in square brackets, D forms with d. Groups on a side chain read outwards from the residue. *: point of attachment. C20 diacid = O=C(O)CCCCCCCCCCCCCCCCCCC(=O)*; C18 diacid = O=C(O)CCCCCCCCCCCCCCCCC(=O)*; αMePhe(2-F) = C[C@](N)(Cc1ccccc1F)C(=O)O; γGlu = O=C(O)[C@H](CCC(=O)[*:2])N[*:1]; αMe4Pal = C[C@](N)(Cc1ccncc1)C(=O)O; αMeY = C[C@](N)(Cc1ccc(O)cc1)C(=O)O; 4Pal = N[C@@H](Cc1ccncc1)C(=O)O; αMeL = CC(C)C[C@](C)(N)C(=O)O; αMeS = C[C@](N)(CO)C(=O)O; Orn = NCCC[C@H](N)C(=O)O; AEEA = NCCOCCOCC(=O)O; Aib = CC(C)(N)C(=O)O
List of pEC50 values.
Reminder that pEC50 means the negative base-10 logarithm of the concentration expressed in mol/L.

Sample records with pEC50:
substance	pEC50
H-Y[Aib]QGTFTSDFS[Orn][αMeL]LDKK([AEEA-γGlu-C18 diacid])AQ[αMe4Pal]AFIEYLIE[Aib]GPSSGAPPPSGS-NH2 [Example 811]	6.61
H-Y[Aib]QGTFTSDFS[Orn][αMeL]LDKK([AEEA-AEEA-γGlu-C18 diacid])AQ[Aib]AFIEYLLE[Aib]GESSGAPPPSGS-NH2 [Example 179]	6.04
H-Y[Aib]QGTFTSD[4Pal]SQ[αMeL]LD[Orn]K([γGlu-γGlu-C18 diacid])AQ[αMe4Pal]AFIE[αMeY]LIA[Aib]GPSSGEPPPSGSEE-NH2 [Example 1094]	7.19

Lab note: measured pEC50 of H-Y[Aib]QGTFTSD[4Pal]S[Orn][αMeL]LD[Orn]K([γGlu-γGlu-γGlu-C18 diacid])AQ[αMe4Pal]AFIEYLIE[Aib]GPSSGAPPPSGSE-NH2 [Example 943] was 6.42

Lab note: measured pEC50 of H-Y[Aib]QGTFTSD[4Pal]S[Orn][αMeL]LD[Orn]K([γGlu-γGlu-C18 diacid])AQ[αMe4Pal][Orn]FIE[αMeY]LIEGGPSSGAPPPSGSEE-NH2 [Example 974] was 6.55

Lab note: measured pEC50 of H-Y[Aib]QGT[αMePhe(2-F)]TSD[4Pal]SI[αMeL]LD[Orn]K([γGlu-γGlu-C18 diacid])AQ[αMe4Pal]EFI[dE][αMeY]LLEGGPSSGAPPPSGE-NH2 [Example 617] was 7.17

Lab note: measured pEC50 of H-Y[Aib]QGT[αMePhe(2-F)]TSD[4Pal][αMeS]I[αMeL]LD[Orn]K([γGlu-γGlu-C18 diacid])AQ[Aib][Orn]FI[dE][αMeY]LSEGGPSSGEPPPSGTEE-NH2 [Example 561] was 7.12

Lab note: measured pEC50 of H-Y[Aib]QGTFTSD[4Pal]SQ[αMeL]LDKK([AEEA-γGlu-γGlu-C18 diacid])AQ[αMe4Pal]AFIEYLIE[Aib]GPSSGAPPPSGS-NH2 [Example 860] was 6.38

Lab note: measured pEC50 of H-Y[Aib]QGTFTSDFS[Orn][αMeL]LDKK([AEEA-γGlu-C20 diacid])AQ[Aib]AFIEYLLE[Aib]GPSSGAPPPSEG-NH2 [Example 61] was 6.15
